For each of the variants below, state its self-cleavage.
B1: HDV Ribozyme (parent)
chain: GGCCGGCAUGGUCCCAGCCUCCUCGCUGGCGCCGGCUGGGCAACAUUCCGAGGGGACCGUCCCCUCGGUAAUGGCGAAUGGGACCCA

Variants of: B1
Assay: self-cleavage, relative activity (ratio to wild type); higher = more cleavage; co-transcriptional
Write the number on its own, no unit after it.

Query: Need self-cleavage of C13G G76A , thanks.
Result: 0

Query: Any idea what its self-cleavage is? The variant is U27A G53C
Result: 0.831

Query: Given the variant C19A C84U , what is its reported self-cleavage?
Result: 0.0804

Query: Fill in the blank: the reported self-cleavage of G31A C66G is ____.
Result: 0.379

Query: Record request: self-cleavage value, item U12A C62A
Result: 0.458

Query: Entry G17U U79C : reported self-cleavage = ?
Result: 0.584

Query: Endpoint output: self-cleavage of G28C C61G . Value?
Result: 0.158

Query: Return reported self-cleavage; argument: C44G A83G
Result: 0.233

Query: Requested read-out: self-cleavage. Entry: C22A U37G
Result: 0.0462

Query: Return reported self-cleavage; argument: G2A U12G
Result: 0.0405

Query: Dear colleague, I am looking for the recorded self-cleavage of the following variant: G2C G6C
Result: 0.0386

Query: Consider the variant A71G G82U and give its measured self-cleavage.
Result: 0.312

Query: Endpoint output: self-cleavage of A51C U72G . Value?
Result: 0.529

Query: Form field: reported self-cleavage of U47G A71G
Result: 1.11

Query: What value of measured self-cleavage is listed for U12C U20A ?
Result: 0.0723

Query: I'd like to know its self-cleavage. The variant in question is C18U G50C
Result: 0.705

Query: Field request: self-cleavage | item: U27A G73A
Result: 0.391

Query: // query self-cleavage value for entry U72A G74U
Result: 0.397

Query: # self-cleavage lookup, item U23A A77C
Result: 0.332

Query: Reported self-cleavage for C26G A45U : what is it?
Result: 0.895

Query: Quick one: self-cleavage of A51G A71G ?
Result: 0.752

Query: Can you share its self-cleavage? I mean this variant: U9A G29C
Result: 0

Query: Report self-cleavage for C21G C62U please.
Result: 0

Query: # query: self-cleavage of entry G17A U79G
Result: 0.388

Query: Entry under review: A70C G74U . Reported self-cleavage?
Result: 0.504

Query: Consider the variant shown here: C30U C86G What is its recorded self-cleavage?
Result: 0.733

Query: self-cleavage for A51G C85U ?
Result: 0.743

Query: What value of self-cleavage has been reported for the following variant? C18G U65A
Result: 0.138

Query: For the variant shown here, C49G G82C , give the reported self-cleavage.
Result: 0.16

Query: Consider the variant shown here: C15A C63G What is its recorded self-cleavage?
Result: 0.539

Query: If you can, please state the reported self-cleavage value of G55U C64A .
Result: 0.94

Query: Reported self-cleavage, variant G1C C30A : ____
Result: 0.104

Query: Can you look up the measured self-cleavage of G31A G68C for me?
Result: 0.518

Query: Could you share which self-cleavage value was measured for G5U U12A ?
Result: 0.332

Query: self-cleavage; subject: G35U C48U
Result: 0.554

Query: # get_value(readout='self-cleavage', item= A78U G82U )
Result: 0.197

Query: I have this variant here, A51C C61U , and I need its recorded self-cleavage.
Result: 0.914

Query: // returns reported self-cleavage for input `G28A`
Result: 0.0977

Query: I'd like to know its self-cleavage. The variant in question is G76C A87G
Result: 1.08

Query: Consider the variant G35A C75G and give its measured self-cleavage.
Result: 0.218

Query: Form field: reported self-cleavage of G40C U65G
Result: 0.237

Query: Need self-cleavage of G10C A16G , thanks.
Result: 0.453

Query: # self-cleavage lookup, item C3U C13U
Result: 0.509

Query: Return reported self-cleavage; argument: C7G G59U
Result: 0.237

Query: // self-cleavage lookup, key: C24U U72G
Result: 0.323

Query: Record request: self-cleavage value, item G52U C58G
Result: 0.95
